Collected Percent Mortality values appear next to each entry.
System: tobacco budworm (Heliothis virescens [Fabricius])
Assay: surface-treated diet test against the tobacco budworm
Assay type: in vivo
Conditions: tobacco budworm second instar larvae; surface-treated diet; 0.25 millimoles of candidate insecticide on the surface of the diet; five-day exposure; compared to total number of insects infested
Answer with the value and then the unit.

Problem: Looking for the measured Percent Mortality of Cn1nnc(-c2ccc(CN3CCC(C(NC(=O)c4ccc(F)cc4)c4ccc(OC(F)(F)F)cc4)CC3)cc2)n1 (stereo not drawn) [Compound 328] , can you help?
Result: 0%

Problem: Looking for the measured Percent Mortality of O=C(Nc1cccc(C(F)(F)F)c1)OC(c1ccc(Cl)c(Cl)c1)C1CCN(Cc2ccc(Oc3ccccn3)cc2)CC1 (stereo not drawn) [Compound 650] , can you help?
Result: 100%

Problem: Looking for the measured Percent Mortality of O=C(Nc1cc(F)ccc1F)OC(c1ccc(C(F)(F)F)cc1)C1CCN(Cc2ccc(Oc3ccccn3)cc2)CC1 (stereo not drawn) [Compound 239] , can you help?
Result: 100%

Problem: Looking for the measured Percent Mortality of COc1ccc(NC(=O)NC(c2ccc(OC(F)(F)F)cc2)C2CCN(Cc3ccc(-c4nnn(C)n4)cc3)CC2)cc1 (stereo not drawn) [Compound 343] , can you help?
Result: 100%

Problem: Looking for the measured Percent Mortality of CC(C)OC(=O)Nc1ccc(CN2CCC(C(OC(=O)Nc3ccc(Cl)cc3)c3ccc(OC(F)(F)F)cc3)CC2)cc1 (stereo not drawn) [Compound 513] , can you help?
Result: 100%

Problem: Looking for the measured Percent Mortality of CCn1nnc(-c2ccc(CN3CCC(C(OC(=O)Nc4ccc(Br)cc4)c4ccc(C(F)(F)F)cc4)CC3)cc2)n1 (stereo not drawn) [Compound 269] , can you help?
Result: 100%

* * *

Collected Percent Mortality values appear next to each entry.
System: tobacco budworm (Heliothis virescens [Fabricius])
Test: surface-treated diet test against the tobacco budworm
Type: in vivo
Conditions: tobacco budworm second instar larvae; surface-treated diet; 0.25 millimoles of candidate insecticide on the surface of the diet; five-day exposure; compared to total number of insects infested
Respond with the bare value in %.

Solved entries (count: 3):
> print(dat)
                                   compound  readoutnumber
1  Cn1nnc(-c2ccc(CN3CCC(C(NC(=O)Nc4ccc(OC(F)(F)F)cc4)c4ccc(OC(F)(F)F)cc4)CC3)cc2)n1 (stereo not shown)            100
2  CCn1nnc(-c2ccc(CN3CCC(C(OC(=O)Nc4ccc(Cl)c(Cl)c4)c4ccc(C)cc4)CC3)cc2)n1 (stereo not shown)            100
3  CCn1nnc(-c2ccc(CN3CCC(C(OC(=O)c4ccc(OC(F)(F)F)cc4)c4ccc(OC(F)(F)F)cc4)CC3)cc2)n1 (stereo not shown)            100

Problem: Looking for the measured Percent Mortality of O=C(Nc1ccncc1)OC(c1ccc(C(F)(F)F)cc1)C1CCN(Cc2ccc(Oc3ccccn3)cc2)CC1 (stereo not shown) , can you help?
Result: 0

* * *

Collected Percent Mortality values appear next to each entry.
Test system: tobacco budworm (Heliothis virescens [Fabricius])
Assay: surface-treated diet test against the tobacco budworm
Assay type: in vivo
Conditions: tobacco budworm second instar larvae; surface-treated diet; 0.25 millimoles of candidate insecticide on the surface of the diet; five-day exposure; compared to total number of insects infested
Respond with the bare value in %.

Solved entries (count: 2):
> print(dat)
                                   compound                                systemname     measuredmetric  readoutnumber
1  CCON=Cc1ccc(CN2CCC(C(OC(=O)Nc3ccc(F)c(F)c3)c3ccc(C(F)(F)F)cc3)CC2)cc1 (stereo not shown) [Compound 196]  tobacco budworm (Heliothis virescens [Fabricius])  Percent Mortality            100
2  CCn1nnc(-c2ccc(CN3CCC(C(OC(=O)Nc4cccc(Br)c4)c4ccc(C(F)(F)F)cc4)CC3)cc2)n1 (stereo not shown) [Compound 268]  tobacco budworm (Heliothis virescens [Fabricius])  Percent Mortality            100

Problem: Looking for the measured Percent Mortality of CC(C)OC(=O)Nc1ccc(CN2CCC(C(OC(=O)Nc3cccc(F)c3)c3ccc(OC(F)(F)F)cc3)CC2)cc1 (stereo not shown) [Compound 514] , can you help?
Result: 100

Problem: Looking for the measured Percent Mortality of CCON=Cc1ccc(CN2CCC(C(OC(=O)Nc3cc(F)cc(F)c3)c3cc(Cl)cc(Cl)c3)CC2)cc1 (stereo not shown) [Compound 534] , can you help?
Result: 100

Problem: Looking for the measured Percent Mortality of Cn1nnc(-c2ccc(CN3CCC(C(NC(=O)c4ccc(OC(F)(F)F)cc4)c4ccc(OC(F)(F)F)cc4)CC3)cc2)n1 (stereo not shown) [Compound 332] , can you help?
Result: 100

Problem: Looking for the measured Percent Mortality of O=C(Nc1cccc(C(F)(F)F)c1)OC(c1ccc(C(F)(F)F)cc1)C1CCN(Cc2ccc(Oc3ccccn3)cc2)CC1 (stereo not shown) [Compound 244] , can you help?
Result: 100

Problem: Looking for the measured Percent Mortality of Cc1cccc(CNC(=O)OC(c2ccc(C(F)(F)F)cc2)C2CCN(Cc3ccc(Oc4ccccn4)cc3)CC2)c1 (stereo not shown) [Compound 694] , can you help?
Result: 50
